Below, each entry is listed with its recorded protein stability index.
B1: CPXM2 (parent)
chain: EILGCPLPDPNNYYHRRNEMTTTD

# Variants of: B1
# assay explanation: protein stability index of a GFP-peptide fusion (GPS, HEK-293T) (PSI 1-6); higher = more stable;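 also: lentivirally expressed fusions sorted by FACS into six bins by GFP to DsRed ratio, PSI derived from sequencing read proportions per bin multiplied by bin number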
# measurement setup: c terminus: a fixed tail appended
assay endpoint: protein stability index

> print(dat)
                 construct.sequence  measured
 1   EIYGCPLPDPNNYYHRRNEMTTTD [L3Y]       3.7
 2  EILGCPLPDPNNYYHRRNEWTTTD [M20W]      3.12
 3   EILGCPLPKPNNYYHRRNEMTTTD [D9K]      2.85
 4  EILGCPLPDPNNYYHRRNEMTTPD [T23P]      3.67
 5   EILGCPLPCPNNYYHRRNEMTTTD [D9C]      3.17
 6   EILGCPLDDPNNYYHRRNEMTTTD [P8D]      4.22
 7  EILGCPLPDPCNYYHRRNEMTTTD [N11C]      2.72
 8   EILHCPLPDPNNYYHRRNEMTTTD [G4H]      3.71
 9  EILGCPLPDNNNYYHRRNEMTTTD [P10N]      3.37
10  EILGCPLPDPNNYYHRRSEMTTTD [N18S]      3.26
11  EILGCPLPDPNNYYHRRLEMTTTD [N18L]      2.51
12  EILGCPLPDPNNYYHRRNSMTTTD [E19S]      3.46
13  EILGCPLPDPNNYYHRRNEMTETD [T22E]      4.39
14  EILGCPLPDPNNYYHRRNGMTTTD [E19G]      3.59
15  EILGCPLPDPNNYYHQRNEMTTTD [R16Q]      4.03
16  EILGCPLPDPNNYYHRRNEMTTTN [D24N]      3.07
17  EILGCPLPDPNNYYHRRNEMFTTD [T21F]      2.77
18   EILGCKLPDPNNYYHRRNEMTTTD [P6K]      2.76
19   EILGLPLPDPNNYYHRRNEMTTTD [C5L]      3.62
20   EILGCHLPDPNNYYHRRNEMTTTD [P6H]      2.94
21   ENLGCPLPDPNNYYHRRNEMTTTD [I2N]      4.55
22  EILGCPLPDPNNYYHFRNEMTTTD [R16F]      2.71
